- assay overview: in vivo
- cond: phylodendrons
experimental readout: concentration at 10 days (ng/g)
Provide the reading as a plain figure in ng/g.

Report concentration at 10 days for O=[N+]([O-])NC1=NCCN1Cc1ccc(Cl)nc1 [imidacloprid] please.
72000
